Test system: U2OS, H460, HTB-9, ES2, HCT116, Capan, OVCAR3, DU145, SK-Mel-5, KB, A498, MCF-7, HepG2, T98G, K562, HeLa
procedure details: MTT Cytotoxic Assay of reaction products and isolated compounds
Type: cell-based
observed property: Cytotoxicity activity

Examples with their reported Cytotoxicity activity follow.
# compound, Cytotoxicity activity
rows = [
    ("CCCC(=O)NCC1(C)C(N)CCC2(C)C1CCC1(C)C2CC=C2C3CC(C)(C)C(NC(=O)CCC)C(N)C3(CN)C(N)CC21C (stereo not shown) [PP3]", "moderate"),
    ("CC=CC(=O)NCC1(C)C(N)CCC2(C)C1CCC1(C)C2CC=C2C3CC(C)(C)C(N)C(N)C3(CNC(=O)C=CC)C(N)CC21C (stereo not shown) [II 1]", "moderate"),
    ("CCC(CC)C(=O)NCC1(C)C(N)CCC2(C)C1CCC1(C)C2CC=C2C3CC(C)(C)C(N)C(N)C3(CNC(=O)C(CC)CC)C(N)CC21C (stereo not shown) [EE1]", "moderate"),
    ("CC(=O)NCC1(C)C(N)CCC2(C)C1CCC1(C)C2CC=C2C3CC(C)(C)C(N)C(N)C3(CNC(C)=O)C(N)CC21C (stereo not shown) [HH1]", "moderate"),
]

Request: So what's the measured Cytotoxicity activity for this one? C=CC(=O)NCC1(C)C(N)CCC2(C)C1CCC1(C)C2CC=C2C3CC(C)(C)C(NC(=O)C=C)C(N)C3(CNC(=O)C=C)C(N)CC21C (stereo not shown) [MM4]
Result: weak

Request: So what's the measured Cytotoxicity activity for this one? CC=C(C)C(=O)NCC1(C)C(N)CCC2(C)C1CCC1(C)C2CC=C2C3CC(C)(C)C(NC(=O)C(C)=CC)C(N)C3(CN)C(N)CC21C (stereo not shown) [AA3]
Result: moderate

Request: So what's the measured Cytotoxicity activity for this one? C=CCCC(=O)NCC1(C)C(N)CCC2(C)C1CCC1(C)C2CC=C2C3CC(C)(C)C(NC(=O)CCC=C)C(N)C3(CNC(=O)CCC=C)C(N)CC21C (stereo not shown) [CC4]
Result: weak

Request: So what's the measured Cytotoxicity activity for this one? C=CCCC(=O)NCC1(C)C(N)CCC2(C)C1CCC1(C)C2CC=C2C3CC(C)(C)C(NC(=O)CCC=C)C(N)C3(CN)C(N)CC21C (stereo not shown) [CC3]
Result: moderate

Request: So what's the measured Cytotoxicity activity for this one? CC1(C)CC2C3=CCC4C5(C)CCC(N)C(C)(CNC(=O)c6ccccc6)C5CCC4(C)C3(C)CC(N)C2(CNC(=O)c2ccccc2)C(N)C1N (stereo not shown) [KK1]
Result: moderate

Request: So what's the measured Cytotoxicity activity for this one? CC(C)C(=O)NCC1(C)C(N)CCC2(C)C1CCC1(C)C2CC=C2C3CC(C)(C)C(NC(=O)C(C)C)C(N)C3(CNC(=O)C(C)C)C(N)CC21C (stereo not shown) [NN4]
Result: weak

Request: So what's the measured Cytotoxicity activity for this one? CCC(=O)NCC1(C)C(O)CCC2(C)C1CCC1(C)C2CC=C2C3CC(C)(C)C(O)C(O)C3(CNC(=O)CC)C(O)CC21C (stereo not shown) [LL2]
Result: strong

Request: So what's the measured Cytotoxicity activity for this one? CCC=CC(=O)NCC1(C)C(O)CCC2(C)C1CCC1(C)C2CC=C2C3CC(C)(C)C(O)C(O)C3(CNC(=O)C=CCC)C(O)CC21C (stereo not shown) [QQ2]
Result: strong

====

Test system: U2OS, H460, HTB-9, ES2, HCT116, Capan, OVCAR3, DU145, SK-Mel-5, KB, A498, MCF-7, HepG2, T98G, K562, HeLa
procedure details: MTT Cytotoxic Assay of reaction products and isolated compounds
Format: cell-based
Description: The peaks, fractions and compounds are selected according to the activities of times studies and the changes of peaks. Selecting the HPLC fractions for isolation is according to the cytotoxic activity of the reaction product obtained at a specific time. […] MTT Assay. […] The formazan (product of the reduction of tetrazolium by viable cells) formed and was dissolved with DMSO and the O.D. at 490 nm, and was measured by an ELISA reader. The MTT level of the cells before drug-treatment was also measured (T0). […]
observed property: Cytotoxicity activity

# compound, reading
data = [
    ("CC1(C)CC2C3=CCC4C5(C)CCC(N)C(C)(CNC(=O)C=Cc6ccccc6)C5CCC4(C)C3(C)CC(N)C2(CNC(=O)C=Cc2ccccc2)C(N)C1N (stereo not shown) [JJ1]", "moderate"),
    ("CC=CC(=O)NCC1(C)C(N)CCC2(C)C1CCC1(C)C2CC=C2C3CC(C)(C)C(NC(=O)C=CC)C(N)C3(CNC(=O)C=CC)C(N)CC21C (stereo not shown) [II 4]", "weak"),
    ("CC=C(C)C(=O)NCC1(C)C(N)CCC2(C)C1CCC1(C)C2CC=C2C3CC(C)(C)C(NC(=O)C(C)=CC)C(N)C3(CNC(=O)C(C)=CC)C(N)CC21C (stereo not shown) [AA4]", "weak"),
    ("CCCC(=O)NCC1(C)C(O)CCC2(C)C1CCC1(C)C2CC=C2C3CC(C)(C)C(O)C(O)C3(CNC(=O)CCC)C(O)CC21C (stereo not shown) [PP2]", "strong"),
]

Request: So what's the measured Cytotoxicity activity for this one? C=CCCC(=O)NCC1(C)C(N)CCC2(C)C1CCC1(C)C2CC=C2C3CC(C)(C)C(N)C(N)C3(CNC(=O)CCC=C)C(N)CC21C (stereo not shown) [CC1]
Result: moderate

====

Tested on: U2OS, H460, HTB-9, ES2, HCT116, Capan, OVCAR3, DU145, SK-Mel-5, KB, A498, MCF-7, HepG2, T98G, K562, HeLa
procedure details: MTT Cytotoxic Assay of reaction products and isolated compounds
Type: cell-based
observed property: Cytotoxicity activity

# molecule, observed property, reading
measured = [
    ("CC1(C)CC2C3=CCC4C5(C)CCC(O)C(C)(CNC(=O)C=Cc6ccccc6)C5CCC4(C)C3(C)CC(O)C2(CNC(=O)C=Cc2ccccc2)C(O)C1O (stereo not shown) [JJ2]", "Cytotoxicity activity", "strong"),
    ("C=CC(=O)NCC1(C)C(N)CCC2(C)C1CCC1(C)C2CC=C2C3CC(C)(C)C(NC(=O)C=C)C(N)C3(CN)C(N)CC21C (stereo not shown) [MM3]", "Cytotoxicity activity", "moderate"),
    ("CC(C)C(=O)NCC1(C)C(N)CCC2(C)C1CCC1(C)C2CC=C2C3CC(C)(C)C(N)C(N)C3(CNC(=O)C(C)C)C(N)CC21C (stereo not shown) [NN1]", "Cytotoxicity activity", "moderate"),
    ("C=CCCC(=O)NCC1(C)C(O)CCC2(C)C1CCC1(C)C2CC=C2C3CC(C)(C)C(O)C(O)C3(CNC(=O)CCC=C)C(O)CC21C (stereo not shown) [CC2]", "Cytotoxicity activity", "strong"),
]

====

Test system: cancer growth, cancer invasion, cells invasion or cancer cell invasion
procedure details: Inhibition of cancer growth and invasion (anti-cancer activity)
Assay type: cell-based
observed property: inhibiting cancer growth, cancer invasion, cells invasion or cancer cell invasion

Examples with their reported inhibiting cancer growth, cancer invasion, cells invasion or cancer cell invasion follow.
# molecule, assayed system, reading
rows = [
    ("CC1O[C@@H](O[C@H]2C(O)[C@@H](O)C(C)O[C@H]2O[C@H]2C(O)[C@@H](O)C(CO)O[C@H]2OC2[C@H](O)C(C(=O)O)O[C@@H](O[C@H]3CC[C@@]4(C)C(CC[C@]5(C)C4CC[C@]46O[C@H](O)[C@]7(C4CC(C)(C)[C@@H](O)[C@@H]7O)[C@H](O)C[C@]65C)C3(C)C)[C@H]2O[C@@H]2OC(CO)[C@H](O)C(O)[C@@H]2O)[C@@H](O)C(O)[C@H]1O (some centres unmarked) [AKOH-M10, reference compound]", "cancer growth, cancer invasion, cells invasion or cancer cell invasion", "do not show the ability"),
    ("CC1(C)CC2C3=CCC4[C@@]5(C)CC[C@H](O)[C@](C)(CO)C5CC[C@@]4(C)[C@]3(C)C[C@@H](O)[C@@]2(CO)[C@@H](O)[C@@H]1O (some centres unmarked) [E4A]", "cancer growth, cancer invasion, cells invasion or cancer cell invasion", "no effect"),
    ("CC1(C)CC2C3=CCC4C5(C)CCC(O)C(C)(CN)C5CCC4(C)C3(C)CC(O)C2(CN)C(O)C1O (centres unmarked) [E4D]", "cancer growth, cancer invasion, cells invasion or cancer cell invasion", "no effect"),
    ("CC1(C)CC2C3=CCC4C5(C)CCC(N)C(C)(CN)C5CCC4(C)C3(C)CC(N)C2(CN)C(N)C1N (centres unmarked) [E4D1]", "cancer growth, cancer invasion, cells invasion or cancer cell invasion", "no effect"),
]

Request: So what's the measured inhibiting cancer growth, cancer invasion, cells invasion or cancer cell invasion for this one? CC1(C)CC2C3=CCC4[C@@]5(C)CC[C@H](O[C@@H]6OC(C(=O)O)[C@@H](O)C(O[C@@H]7O[C@@H](CO)C(O)[C@@H]7O)[C@@H]6O[C@@H]6OC(CO)[C@H](O)C(O)[C@@H]6O)C(C)(C)C5CC[C@@]4(C)[C@]3(C)[C@@H](O)[C@@H](O)[C@@]2(CO)[C@@H](O)[C@@H]1O (some centres unmarked) [AKOH-Y, reference compound]
Result: do not show the ability

Source: patent US20230159436A1
